experimental_target: CXCR6 (Homo sapiens, UniProt O00574)
Construct: expressed in transfected cells
Sequence (O00574 whole entry): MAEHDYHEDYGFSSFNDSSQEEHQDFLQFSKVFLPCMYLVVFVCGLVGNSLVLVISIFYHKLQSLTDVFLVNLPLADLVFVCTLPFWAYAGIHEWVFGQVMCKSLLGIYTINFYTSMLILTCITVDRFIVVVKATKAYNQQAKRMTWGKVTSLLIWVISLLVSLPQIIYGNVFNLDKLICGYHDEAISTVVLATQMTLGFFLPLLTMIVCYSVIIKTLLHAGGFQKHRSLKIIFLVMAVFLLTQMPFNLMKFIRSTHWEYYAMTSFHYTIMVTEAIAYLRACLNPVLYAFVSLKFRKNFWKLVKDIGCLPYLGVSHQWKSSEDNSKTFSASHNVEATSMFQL
experimental_details: Figure S2a opioid peptide screen on chemokine receptors
Format: cell-based
Design: dose or concentration left out as unconfirmed
test_context: replicate 1, read-out: CXCR6 activity, ctrl+ = 100
Here, each record is paired with measured activation data.
property_name: activation (%)

* CC(C)C[C@H](NC(=O)[C@H](CCCCN)NC(=O)[C@H](CCCN=C(N)N)NC(=O)[C@H](C)NC(=O)[C@H](CO)NC(=O)[C@H](CCCCN)NC(=O)[C@H](CCCN=C(N)N)NC(=O)[C@H](C)NC(=O)CNC(=O)[C@@H](NC(=O)[C@H](Cc1ccccc1)NC(=O)CNC(=O)CNC(=O)[C@@H](N)Cc1ccccc1)[C@@H](C)O)C(=O)N[C@@H](C)C(=O)N[C@@H](CC(N)=O)C(=O)N[C@@H](CCC(N)=O)C(=O)O [Nociceptin] | -0.607
* C[C@H](NC(=O)CNC(=O)[C@@H](NC(=O)[C@H](Cc1ccccc1)NC(=O)CNC(=O)CNC(=O)[C@@H](N)Cc1ccccc1)[C@@H](C)O)C(=O)N[C@@H](CCCNC(=N)N)C(=O)N[C@@H](CCCCN)C(=O)N[C@@H](CO)C(=O)N[C@@H](C)C(=O)N[C@@H](CCCNC(=N)N)C(=O)N[C@@H](CCCCN)C(N)=O [Nociceptin 1-13] | -0.349
* CC[C@H](C)[C@H](NC(=O)[C@H](CCCNC(=N)N)NC(=O)[C@H](CCCNC(=N)N)NC(=O)[C@H](CC(C)C)NC(=O)[C@H](Cc1ccccc1)NC(=O)CNC(=O)CN)C(=O)N[C@@H](CCCNC(=N)N)C(=O)N1CCC[C@H]1C(=O)N[C@@H](CCCCN)C(=O)N[C@@H](CC(C)C)C(=O)N[C@@H](CCCCN)C(=O)N[C@@H](Cc1c[nH]c2ccccc12)C(=O)N[C@@H](CC(=O)O)C(=O)N[C@@H](CC(N)=O)C(=O)N[C@@H](CCC(N)=O)C(=O)O [Dynorphin 2-17] | -0.523
* CC(C)C[C@H](NC(=O)[C@H](Cc1ccccc1)NC(=O)CNC(=O)CNC(=O)[C@@H](N)Cc1ccc(O)cc1)C(=O)N[C@@H](CCCN=C(N)N)C(=O)N[C@@H](CCCN=C(N)N)C(=O)N[C@@H](CCC(N)=O)C(=O)N[C@@H](Cc1ccccc1)C(=O)N[C@@H](CCCCN)C(=O)N[C@H](C(=O)N[C@H](C(=O)N[C@H](C(=O)O)[C@@H](C)O)C(C)C)C(C)C [Dynorphin B] | -1.05
* CSCC[C@H](NC(=O)[C@H](Cc1ccccc1)NC(=O)CNC(=O)CNC(=O)[C@@H](N)Cc1ccc(O)cc1)C(=O)N[C@@H](CCCNC(=N)N)C(=O)N[C@@H](CCCNC(=N)N)C(=O)N[C@H](C(N)=O)C(C)C [Adrenorphin] | 0.866
* CC[C@H](C)[C@H](NC(=O)[C@H](CCCNC(=N)N)NC(=O)[C@H](CCCNC(=N)N)NC(=O)[C@H](CC(C)C)NC(=O)[C@H](Cc1ccccc1)NC(=O)CNC(=O)CNC(=O)[C@@H](N)Cc1ccc(O)cc1)C(=O)N[C@@H](CCCNC(=N)N)C(=O)N1CCC[C@H]1C(=O)N[C@@H](CCCCN)C(=O)N[C@@H](CC(C)C)C(=O)N[C@@H](CCCCN)C(=O)N[C@@H](Cc1c[nH]c2ccccc12)C(=O)N[C@@H](CC(=O)O)C(=O)N[C@@H](CC(N)=O)C(=O)N[C@@H](CCC(N)=O)C(=O)O [Dynorphin A] | -0.0479

These measurements were taken from paper PMC7305236.
